experimental-system: CCK-A (Rattus norvegicus, UniProt P30551)
Sequence (P30551 whole entry): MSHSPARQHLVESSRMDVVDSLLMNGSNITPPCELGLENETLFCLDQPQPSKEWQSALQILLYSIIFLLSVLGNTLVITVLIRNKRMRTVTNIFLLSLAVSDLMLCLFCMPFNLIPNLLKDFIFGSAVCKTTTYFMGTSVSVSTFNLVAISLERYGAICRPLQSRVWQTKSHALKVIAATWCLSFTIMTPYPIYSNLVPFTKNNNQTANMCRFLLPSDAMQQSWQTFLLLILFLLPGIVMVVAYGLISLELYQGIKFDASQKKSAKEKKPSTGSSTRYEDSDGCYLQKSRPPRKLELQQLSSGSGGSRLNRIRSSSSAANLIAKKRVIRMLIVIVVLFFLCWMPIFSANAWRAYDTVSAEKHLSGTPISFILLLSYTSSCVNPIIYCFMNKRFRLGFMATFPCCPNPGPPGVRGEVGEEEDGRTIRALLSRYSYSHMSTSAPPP

# compound, IC50
records = [
    ("CCCCCN1C[C@H](C(=O)O)[C@H](NC(=O)Nc2ccc(Cl)cc2)C1=O (relative stereo) [47 cis]", "> 1000 nM"),
    ("CCCCCN1C[C@@H](C(=O)O)[C@H](NC(=O)Nc2ccc(Cl)cc2)C1=O (relative stereo) [47 trans]", "> 1000 nM"),
    ("O=C(N[C@@H]1C(=O)N(c2ccccc2)C[C@H]1C(=O)O)c1ccc(Cl)c(Cl)c1 (relative stereo) [Example 35 (trans)]", "> 1000 nM"),
]

====

experimental-system: CCK-B (Cavia porcellus, UniProt H0VZC5)
Construct: Rat pancreas or guinea pig brain was homogenized; from tissue; host or cells: guinea pig brain homogenate (membrane pellet)
Sequence (H0VZC5 1-426): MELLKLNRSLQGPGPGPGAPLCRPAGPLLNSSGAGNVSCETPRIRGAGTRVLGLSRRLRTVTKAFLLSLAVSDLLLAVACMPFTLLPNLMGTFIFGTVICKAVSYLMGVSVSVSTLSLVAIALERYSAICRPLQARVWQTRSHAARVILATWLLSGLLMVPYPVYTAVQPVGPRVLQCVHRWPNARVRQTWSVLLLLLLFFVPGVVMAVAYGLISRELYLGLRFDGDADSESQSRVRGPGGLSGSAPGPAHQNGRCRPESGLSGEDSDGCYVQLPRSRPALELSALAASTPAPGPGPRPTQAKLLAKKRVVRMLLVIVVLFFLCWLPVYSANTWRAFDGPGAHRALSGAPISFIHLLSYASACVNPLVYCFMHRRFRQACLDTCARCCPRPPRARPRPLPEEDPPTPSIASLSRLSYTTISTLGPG
procedure-summary: Displacement of 125I-CCK-OP binding to guinea pig brain homogenates (CCK-B binding)
run-conditions: @ 10 (uM), guinea pig brain membranes; read-out: CCK-B binding GP brain membranes: percent displacement of 125I-CCK-OP
inhibition at 10 µM values by entry
quantity-measured: inhibition at 10 µM (%)

# compound, unit-abbrev, measured-value
data = [
    ("O=C(Nc1ccc(Cl)c(Cl)c1)N[C@@H]1C(=O)N(c2ccccc2)C[C@H]1C(=O)O (relative stereo) [Example 36 (trans)]", "%", 45),
    ("O=C(N[C@@H]1C(=O)N(c2ccccc2)C[C@@H]1C(=O)O)c1ccc2ccccc2c1 (relative stereo) [41 cis]", "%", 48),
    ("O=C(N[C@H]1C(=O)N(c2ccccc2)C[C@H]1C(=O)O)c1ccc(Cl)c(Cl)c1 (relative stereo) [Example 35 (cis)]", "%", 35),
    ("O=C(N[C@H]1C(=O)N(c2ccccc2F)C[C@H]1C(=O)O)c1ccc2ccccc2c1 (relative stereo)", "%", 41),
    ("CCCCCN1C[C@@H](C(=O)O)[C@@H](NC(=O)c2ccc(Cl)c(Cl)c2)C1=O (relative stereo)", "%", 49),
]

// provenance: patent US5314886A
